- System: HT-29
- procedure-summary: NCI tumour cell line growth inhibition, 48 h
Active and inactive are the calls of the source. Cut-off read from the data, not from the text of the source: active = GI50 up to about 1.1 µM and inactive = higher.
Outcome codes: t for active, f for inactive

{"molecule": "O=C(CCN1CC2CCC(CC2)C1)c1cccs1", "label-value": "f"}
{"molecule": "CCCCOC(=O)NC(=O)c1cn(CCCOC(=O)CCCCCCCCC(=O)OCCCn2cc(C(=O)NC(=O)OCCCC)c(=O)n(C)c2=O)c(=O)n(C)c1=O", "label-value": "f"}
{"molecule": "C/C(=N\\Nc1nc2cc(C(F)(F)F)ccc2s1)c1ccccn1", "label-value": "t"}
{"molecule": "O=C1/C(=C\\c2cccc(Oc3ccccc3)c2)S(=O)(=O)C(c2ccccc2)N1c1ccc(Cl)cc1 (configuration not stated)", "label-value": "f"}
{"molecule": "CC1=C(c2cc(C(=O)Nc3ccc(Cl)c(Cl)c3)nc(N)n2)Sc2ccccc2N1", "label-value": "f"}
{"molecule": "CNC(=O)Nn1c(SC)nc2ccccc21", "label-value": "f"}
{"molecule": "Cc1ccc(C)c(C(=N)c2ccccc2Cc2ccccc2)c1", "label-value": "f"}
{"molecule": "CC/C=C/c1cc2c(c3[nH]ccc13)[C@@H](C)CC2C.CC/C=C/c1cc2cc[nH]c2c2c1C(C)C[C@@H]2C.CCc1cc2c(c3[nH]ccc13)[C@@H](C)CC2C (some centres not stated)", "label-value": "f"}
{"molecule": "NC(CO)c1ccccc1 (configuration not stated)", "label-value": "f"}
{"molecule": "Cc1ccc(/C=C2\\Cc3cc(C)c(C)cc3C2=O)c(C(=O)O)c1", "label-value": "f"}
{"molecule": "CN(C)CC(CN(C)C)c1ccccn1", "label-value": "f"}
{"molecule": "CCC(/C=C/c1ccccc1)=N\\NC(=S)N/N=C(/C=C/c1ccccc1)CC", "label-value": "f"}
{"molecule": "COC(=O)C1Cc2c([nH]c3ccccc23)-c2[nH]c3ccccc3c2CC(NC(C)=O)C(=O)NCC(=O)NCC(=O)N1 (configuration not stated)", "label-value": "f"}
{"molecule": "COc1cc2c(cc1OC)[Se]c1cc(OC)c(OC)cc1[Se]2", "label-value": "f"}
{"molecule": "CCN(CC)C1CC(O[C@H]2C[C@](O)(C(=O)CO)Cc3c(O)c4c(c(O)c32)C(=O)c2c(OC)cccc2C4=O)OC(C)C1O (some centres not stated)", "label-value": "t"}
{"molecule": "OCCOc1ccccc2cccc1-2", "label-value": "f"}
{"molecule": "Cc1nc(-c2ccccc2)cc2c1c(=O)oc1ccccc12", "label-value": "f"}
{"molecule": "CC(=O)Oc1ccc(C)c2c1[C@H]1CC[C@]3(C)[C@@H](OC(C)=O)CC[C@H]3[C@@H]1CC2", "label-value": "f"}
{"molecule": "C[N+](C)(C)CC(=O)N/N=C(/CC1OC(=O)c2ccccc21)c1ccccc1O (configuration not stated)", "label-value": "f"}
{"molecule": "CN(C)CCN(c1ccccn1)c1ccccn1", "label-value": "f"}
{"molecule": "O=C1C(Cl)=C(N2CCOCC2)C(=O)c2c(O)ccc(O)c21", "label-value": "t"}
{"molecule": "Cc1cc(=O)oc2c(C3=NN(C=O)C(c4ccccc4)C3)c(O)ccc12 (configuration not stated)", "label-value": "f"}
{"molecule": "CC1(c2ccc(Cl)s2)CC(c2ccc(Cl)s2)=C(C#N)C(=C(C#N)C#N)N1 (configuration not stated)", "label-value": "f"}
{"molecule": "Cc1ccc([N+](=O)[O-])cc1S(=O)(=O)Nc1ccc(C2=NOC(c3ccco3)C2)cc1 (configuration not stated)", "label-value": "f"}
{"molecule": "Nn1c(-c2ccccc2Cl)nc2ccccc2c1=O", "label-value": "f"}
{"molecule": "COC(=O)CN(CC(=O)NCCCBr)C1CCCCC1N(CC(=O)OC)CC(=O)OC (configuration not stated)", "label-value": "f"}
{"molecule": "Cc1c(-c2ccccc2)c(C#N)c2nnn(C)c(=O)n12", "label-value": "f"}
{"molecule": "O=C(O)c1ccccc1C(=O)Nn1cnnc1", "label-value": "f"}
{"molecule": "O=C(O)CCSC1=NCCN1", "label-value": "f"}
{"molecule": "CCOC(=O)c1cc(C2CCN(Cc3ccccc3)C2=O)c(C(=O)/C=C(/C)N)[nH]1 (configuration not stated)", "label-value": "f"}
{"molecule": "O=C1OC2(c3ccccc31)c1cc(I)c(O)c(I)c1Oc1c2cc(I)c(O)c1I", "label-value": "f"}
{"molecule": "CCOC1=C2C(=O)OC(=O)C2C2CCCCC2=C1 (configuration not stated)", "label-value": "f"}
{"molecule": "Cc1n[nH]c(=S)n1/N=C/c1ccc(-c2ccc(Cl)cc2)o1", "label-value": "f"}
{"molecule": "CC1=NC(=Cc2ccccc2O)C(=O)N1n1c(-c2ccccc2)nc2ccccc2c1=O", "label-value": "f"}
{"molecule": "Cc1nc2sccn2c1/C=C1/C(=O)Nc2cccc(Cl)c21", "label-value": "f"}
{"molecule": "COC(=O)/C=C\\[C@H]1[C@H](C)N1S(=O)(=O)c1ccc(C)cc1 (some centres not stated)", "label-value": "f"}
{"molecule": "Cc1ccc(S(=O)(=O)O)cc1.c1cc2c(c(NC3=NCCN3)c1)CCCC2", "label-value": "f"}
{"molecule": "CC1(C)CCC(C)(C)c2cc(NC(=O)c3ccc(C(=O)O)cc3)ccc21", "label-value": "f"}
{"molecule": "CN(C)C(=O)c1nnsc1NN=O", "label-value": "f"}
{"molecule": "O=C1c2cc(I)ccc2N2CCN=C2N1Cc1ccccc1", "label-value": "f"}
{"molecule": "CN(C)c1ccc(/C=N/n2c(-c3ccccc3)nc3ccccc3c2=O)cc1", "label-value": "f"}
{"molecule": "O=C1Nc2ccc(S(=O)(=O)NCCO)cc2/C1=C1/Nc2ccccc2C1=O", "label-value": "f"}
